Target chain: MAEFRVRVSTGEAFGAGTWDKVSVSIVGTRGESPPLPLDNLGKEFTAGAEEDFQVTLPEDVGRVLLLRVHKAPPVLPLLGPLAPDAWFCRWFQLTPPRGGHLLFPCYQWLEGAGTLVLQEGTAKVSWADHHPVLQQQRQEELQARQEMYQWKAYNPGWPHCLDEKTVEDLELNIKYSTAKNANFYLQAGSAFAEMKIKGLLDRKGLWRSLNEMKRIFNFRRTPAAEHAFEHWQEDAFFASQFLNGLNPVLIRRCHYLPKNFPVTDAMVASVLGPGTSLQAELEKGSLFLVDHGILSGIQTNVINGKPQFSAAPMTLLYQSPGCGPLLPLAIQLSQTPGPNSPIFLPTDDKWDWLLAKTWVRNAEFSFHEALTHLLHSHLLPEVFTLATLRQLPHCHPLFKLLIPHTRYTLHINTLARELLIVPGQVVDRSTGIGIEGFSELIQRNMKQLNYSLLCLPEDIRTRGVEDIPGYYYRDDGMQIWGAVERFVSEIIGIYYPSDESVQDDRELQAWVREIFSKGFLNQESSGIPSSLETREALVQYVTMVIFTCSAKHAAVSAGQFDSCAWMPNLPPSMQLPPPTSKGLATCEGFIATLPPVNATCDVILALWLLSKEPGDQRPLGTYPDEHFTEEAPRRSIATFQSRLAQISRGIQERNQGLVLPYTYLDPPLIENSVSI
metric.name: Ki (nM)

• FC(F)(F)c1ccc(CSc2nccn2-c2ccccc2)cc1 = 1200
